In this section, each of the compounds is paired with its reported emission maximum.
- PROTOCOL_DESCRIPTION: solvent given as SMILES
- MEASUREMENT_SETUP: in CCOC(C)=O
MEASURE: emission maximum (nm)

{"COMPOUND": "O=C1c2ccccc2-c2ccc(N3CCN(c4ccccc4)CC3)c3cccc1c23", "UNIT_LABEL": "nm", "NUMERIC_READOUT": 587}
{"COMPOUND": "CCCN(c1ccccc1)c1ccc2c(c1)C(CC)(CC)c1cc(/C=C/c3ccc(/C=C(\\C#N)C(=O)O)s3)ccc1-2", "UNIT_LABEL": "nm", "NUMERIC_READOUT": 552}
{"COMPOUND": "CCN(CC)c1ccc2cc(/C=C/C(=O)/C=C(O)/C=C/c3cc4ccc(N(CC)CC)cc4oc3=O)c(=O)oc2c1", "UNIT_LABEL": "nm", "NUMERIC_READOUT": 566}
{"COMPOUND": "Cc1ccc(/C=N/c2cc(C(C)C)c(O)cc2C)cc1", "UNIT_LABEL": "nm", "NUMERIC_READOUT": 409}
{"COMPOUND": "CCOC(=O)/C(C#N)=C/c1cc2c3ccccc3n(C)c2cc1OC", "UNIT_LABEL": "nm", "NUMERIC_READOUT": 458}
{"COMPOUND": "CCCN1C(=O)c2c3c(c4c(c2C1=O)CCc1cc(-c2ccc(N(C)C)cc2)c(OC)cc1-4)-c1cc(OC)c(-c2ccc(N(C)C)cc2)cc1CC3", "UNIT_LABEL": "nm", "NUMERIC_READOUT": 598}
{"COMPOUND": "CC(C)(C)c1ccc(-c2nc3c4ccc(-c5cccc6ccccc56)cc4c4cc(-c5cccc6ccccc56)ccc4c3n2-c2ccc(C(C)(C)C)cc2)cc1", "UNIT_LABEL": "nm", "NUMERIC_READOUT": 385}
{"COMPOUND": "Clc1nc(Cl)nc(Nc2ccc3c4cccc5cccc(c6cccc2c63)c54)n1", "UNIT_LABEL": "nm", "NUMERIC_READOUT": 469}
{"COMPOUND": "COc1ccc(-c2nc(C(C)=O)c(C)o2)cc1", "UNIT_LABEL": "nm", "NUMERIC_READOUT": 347}
{"COMPOUND": "O=C(O)c1ccccc1Nc1cccc(C(F)(F)F)c1", "UNIT_LABEL": "nm", "NUMERIC_READOUT": 410}
{"COMPOUND": "CCn1c2ccccc2c2cc(C#Cc3cc(C#Cc4ccc5c(c4)c4ccccc4n5CC)nc(OC)n3)ccc21", "UNIT_LABEL": "nm", "NUMERIC_READOUT": 442}
{"COMPOUND": "Clc1nc(Nc2ccccc2)nc(Nc2ccc3c4cccc5cccc(c6cccc2c63)c54)n1", "UNIT_LABEL": "nm", "NUMERIC_READOUT": 475}
{"COMPOUND": "COc1ccc(/C=C2\\OC(=O)c3ccccc32)cc1", "UNIT_LABEL": "nm", "NUMERIC_READOUT": 438.6}
{"COMPOUND": "N#Cc1ccc(/C=C2\\OC(=O)c3cc(N)ccc32)cc1", "UNIT_LABEL": "nm", "NUMERIC_READOUT": 467.73}
{"COMPOUND": "CC1=[N+]2C(=C(/C=C/c3ccc(C(F)(F)F)cc3)c3ccc(C)n3[B-]2(F)F)C=C1c1cc2n(c1)[B-](F)(F)[N+]1=CC=CC1=C2c1c(C)cc(C)cc1C", "UNIT_LABEL": "nm", "NUMERIC_READOUT": 710}
{"COMPOUND": "N#Cc1coc2ccccc2c1=O", "UNIT_LABEL": "nm", "NUMERIC_READOUT": 495}
{"COMPOUND": "Cc1cc(O)c(C(C)C)cc1/N=C/c1ccc(O)cc1", "UNIT_LABEL": "nm", "NUMERIC_READOUT": 405}
{"COMPOUND": "Nc1ccc(C#Cc2ccc3ccc4ccc(C#Cc5ccc(N)cc5)c5ccc2c3c45)cc1", "UNIT_LABEL": "nm", "NUMERIC_READOUT": 506}
{"COMPOUND": "Cc1ccc(C2=C3C=C(I)C=[N+]3[B-](F)(F)n3cc(I)cc32)cc1", "UNIT_LABEL": "nm", "NUMERIC_READOUT": 569.5}
{"COMPOUND": "CC1=[N+]2C(=C(c3ccc(N4CCCCC4)cc3)c3ccc(C)n3[B-]2(F)F)C=C1", "UNIT_LABEL": "nm", "NUMERIC_READOUT": 518}
{"COMPOUND": "Cc1cc(C(F)(F)F)nc2c1ccc1nc(-c3ccc(F)c(F)c3)cn12", "UNIT_LABEL": "nm", "NUMERIC_READOUT": 454}
{"COMPOUND": "CC1(C)CC(/C=C/c2ccc(-n3cccn3)cc2)=CC(=C(C#N)C#N)C1", "UNIT_LABEL": "nm", "NUMERIC_READOUT": 526}
{"COMPOUND": "CCc1c(C)c2n(c1C)[B-](F)(F)[N+]1=C(NCc3ccc(OC)cc3)C(SC#N)=CC1=C2C", "UNIT_LABEL": "nm", "NUMERIC_READOUT": 586}
{"COMPOUND": "CCN(CC)c1ccc2cc(-c3ccc(C(F)(F)F)cc3)oc(=O)c2c1", "UNIT_LABEL": "nm", "NUMERIC_READOUT": 443}
{"COMPOUND": "COc1ccc(/C=C/c2ccccc2)cc1OC", "UNIT_LABEL": "nm", "NUMERIC_READOUT": 382}
{"COMPOUND": "CC(C)c1cc(C(C)C)c(B2c3cc(N4c5ccccc5Oc5ccccc54)ccc3N(c3ccccc3)c3ccc(N4c5ccccc5Oc5ccccc54)cc32)c(C(C)C)c1", "UNIT_LABEL": "nm", "NUMERIC_READOUT": 546.26}
{"COMPOUND": "COc1ccc(C#Cc2c3ccccc3c3n2[B-](F)(F)[N+]2=C(C)C=C(C)C2=C3)cc1", "UNIT_LABEL": "nm", "NUMERIC_READOUT": 623}
{"COMPOUND": "NS(=O)(=O)c1ccc(N2N=C(c3ccc(O)cc3)CC2c2ccc(F)cc2)cc1 (stereo not drawn)", "UNIT_LABEL": "nm", "NUMERIC_READOUT": 416}
{"COMPOUND": "O=C(O)c1ccccc1Nc1ccccc1", "UNIT_LABEL": "nm", "NUMERIC_READOUT": 434}
{"COMPOUND": "Oc1ccc(/N=C/c2ccccc2Oc2ccccc2)cc1", "UNIT_LABEL": "nm", "NUMERIC_READOUT": 412}
{"COMPOUND": "Cn1ncc2c3c(C#N)c4c5ccccc5n(C)c4nc3ccc21", "UNIT_LABEL": "nm", "NUMERIC_READOUT": 478}
{"COMPOUND": "CN(C)c1ccc(/C=C/C=C2\\CC/C(=C\\C=C\\c3ccc(N(C)C)cc3)C2=O)cc1", "UNIT_LABEL": "nm", "NUMERIC_READOUT": 644}
{"COMPOUND": "CC1=[N+]2C(=C(c3ccc(C=O)cc3)c3ccc(C)n3[B-]2(F)F)C=C1c1cc2n(c1)[B-](F)(F)[N+]1=CC=CC1=C2c1c(C)cc(C)cc1C", "UNIT_LABEL": "nm", "NUMERIC_READOUT": 669}
{"COMPOUND": "COc1ccc(C2=C3C(C)=CC(C)=[N+]3[B-](F)(F)n3c(/C=C/c4ccc(N(C)C)cc4)cc(C)c32)cc1", "UNIT_LABEL": "nm", "NUMERIC_READOUT": 665}
{"COMPOUND": "c1ccc(-c2nc(-c3ccccc3)nc(-c3ccc(-n4c5ccc(-c6ccc7oc8ccccc8c7c6)cc5c5cc(-c6ccc7oc8ccccc8c7c6)ccc54)cc3)n2)cc1", "UNIT_LABEL": "nm", "NUMERIC_READOUT": 476}
{"COMPOUND": "COC(=O)c1nc(-c2ccccc2)oc1C", "UNIT_LABEL": "nm", "NUMERIC_READOUT": 318}
{"COMPOUND": "CN(C)c1ccc(C#Cc2ccc3ccc4ccc(C#Cc5ccc(N(C)C)cc5)c5ccc2c3c45)cc1", "UNIT_LABEL": "nm", "NUMERIC_READOUT": 529.9}
{"COMPOUND": "Nc1ccc2c(c1)Cc1ccccc1-2", "UNIT_LABEL": "nm", "NUMERIC_READOUT": 360}
